The values you see were collected from patent US20210388087A1.

target-system: T1, CD3 epsilon homodimer protein (UniProt P07766 23-126)
T1 construct: also called CD3 (CD3 epsilon)
T1 sequence (P07766 23-126): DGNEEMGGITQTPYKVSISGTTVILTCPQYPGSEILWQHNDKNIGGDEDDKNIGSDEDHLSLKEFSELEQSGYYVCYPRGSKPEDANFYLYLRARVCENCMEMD
experiment-summary: SPR, antibody over immobilised CD3e homodimer;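 also: SPR at 25 °C with CD3 epsilon homodimer amine-coupled to a CM4 sensor chip and antibody flowed over as analyte in HBS-EP+ running buffer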
metric: KD ratio to GLS3000
Field format: numeric only.

binder	metric	recorded-measurement
CE115HA000/GLS3000 N53Y (antibody, IgG1, name in Kabat numbering, V domains shown, one-arm IgG1) VH: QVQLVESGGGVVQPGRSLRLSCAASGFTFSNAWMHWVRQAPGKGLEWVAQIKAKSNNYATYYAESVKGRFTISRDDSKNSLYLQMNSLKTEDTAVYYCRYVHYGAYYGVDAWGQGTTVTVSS VL: DIVMTQSPLSLPVTPGEPASISCRSSQSLVHSNRNTYLHWYQQKPGQAPRLLIYKVSYRFSGVPDRFSGSGSGTDFTLKISRVEAEDVGVYYCGQGTQVPYTFGQGTKLEIK	KD ratio to GLS3000	0.99
CE115HA000/GLS3000 K50Q (antibody, IgG1, name in Kabat numbering, V domains shown, one-arm IgG1) VH: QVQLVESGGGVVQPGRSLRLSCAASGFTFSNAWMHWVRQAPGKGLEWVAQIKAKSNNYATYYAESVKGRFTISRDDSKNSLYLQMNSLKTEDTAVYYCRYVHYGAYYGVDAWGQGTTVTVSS VL: DIVMTQSPLSLPVTPGEPASISCRSSQSLVHSNRNTYLHWYQQKPGQAPRLLIYQVSNRFSGVPDRFSGSGSGTDFTLKISRVEAEDVGVYYCGQGTQVPYTFGQGTKLEIK	KD ratio to GLS3000	8.13
CE115HA000/GLS3000 P95L (antibody, IgG1, name in Kabat numbering, V domains shown, one-arm IgG1) VH: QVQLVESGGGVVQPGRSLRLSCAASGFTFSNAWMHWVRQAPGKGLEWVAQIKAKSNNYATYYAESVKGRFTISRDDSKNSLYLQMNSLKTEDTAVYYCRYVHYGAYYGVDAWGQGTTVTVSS VL: DIVMTQSPLSLPVTPGEPASISCRSSQSLVHSNRNTYLHWYQQKPGQAPRLLIYKVSNRFSGVPDRFSGSGSGTDFTLKISRVEAEDVGVYYCGQGTQVLYTFGQGTKLEIK	KD ratio to GLS3000	11.7
CE115HA000/GLS3000 Q93R (antibody, IgG1, name in Kabat numbering, V domains shown, one-arm IgG1) VH: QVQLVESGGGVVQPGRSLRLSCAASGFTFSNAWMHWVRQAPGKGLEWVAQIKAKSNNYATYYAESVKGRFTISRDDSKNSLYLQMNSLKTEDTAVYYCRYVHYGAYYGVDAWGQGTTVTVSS VL: DIVMTQSPLSLPVTPGEPASISCRSSQSLVHSNRNTYLHWYQQKPGQAPRLLIYKVSNRFSGVPDRFSGSGSGTDFTLKISRVEAEDVGVYYCGQGTRVPYTFGQGTKLEIK	KD ratio to GLS3000	0.79

With those in mind, consider the next binder.
Form field: reported KD ratio to GLS3000 of CE115HA000/GLS3000 Q27L (antibody, IgG1, name in Kabat numbering, V domains shown, one-arm IgG1) VH: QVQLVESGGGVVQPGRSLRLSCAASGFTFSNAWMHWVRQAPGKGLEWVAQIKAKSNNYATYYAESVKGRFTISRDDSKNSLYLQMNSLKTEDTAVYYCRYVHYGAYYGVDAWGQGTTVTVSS VL: DIVMTQSPLSLPVTPGEPASISCRSSLSLVHSNRNTYLHWYQQKPGQAPRLLIYKVSNRFSGVPDRFSGSGSGTDFTLKISRVEAEDVGVYYCGQGTQVPYTFGQGTKLEIK 0.86
